Values compiled from patent US4564612A.

# experimental.target: Angiotensin I Converting Enzyme (ACE) (Oryctolagus cuniculus)
# Sequence (P12822 34-1310): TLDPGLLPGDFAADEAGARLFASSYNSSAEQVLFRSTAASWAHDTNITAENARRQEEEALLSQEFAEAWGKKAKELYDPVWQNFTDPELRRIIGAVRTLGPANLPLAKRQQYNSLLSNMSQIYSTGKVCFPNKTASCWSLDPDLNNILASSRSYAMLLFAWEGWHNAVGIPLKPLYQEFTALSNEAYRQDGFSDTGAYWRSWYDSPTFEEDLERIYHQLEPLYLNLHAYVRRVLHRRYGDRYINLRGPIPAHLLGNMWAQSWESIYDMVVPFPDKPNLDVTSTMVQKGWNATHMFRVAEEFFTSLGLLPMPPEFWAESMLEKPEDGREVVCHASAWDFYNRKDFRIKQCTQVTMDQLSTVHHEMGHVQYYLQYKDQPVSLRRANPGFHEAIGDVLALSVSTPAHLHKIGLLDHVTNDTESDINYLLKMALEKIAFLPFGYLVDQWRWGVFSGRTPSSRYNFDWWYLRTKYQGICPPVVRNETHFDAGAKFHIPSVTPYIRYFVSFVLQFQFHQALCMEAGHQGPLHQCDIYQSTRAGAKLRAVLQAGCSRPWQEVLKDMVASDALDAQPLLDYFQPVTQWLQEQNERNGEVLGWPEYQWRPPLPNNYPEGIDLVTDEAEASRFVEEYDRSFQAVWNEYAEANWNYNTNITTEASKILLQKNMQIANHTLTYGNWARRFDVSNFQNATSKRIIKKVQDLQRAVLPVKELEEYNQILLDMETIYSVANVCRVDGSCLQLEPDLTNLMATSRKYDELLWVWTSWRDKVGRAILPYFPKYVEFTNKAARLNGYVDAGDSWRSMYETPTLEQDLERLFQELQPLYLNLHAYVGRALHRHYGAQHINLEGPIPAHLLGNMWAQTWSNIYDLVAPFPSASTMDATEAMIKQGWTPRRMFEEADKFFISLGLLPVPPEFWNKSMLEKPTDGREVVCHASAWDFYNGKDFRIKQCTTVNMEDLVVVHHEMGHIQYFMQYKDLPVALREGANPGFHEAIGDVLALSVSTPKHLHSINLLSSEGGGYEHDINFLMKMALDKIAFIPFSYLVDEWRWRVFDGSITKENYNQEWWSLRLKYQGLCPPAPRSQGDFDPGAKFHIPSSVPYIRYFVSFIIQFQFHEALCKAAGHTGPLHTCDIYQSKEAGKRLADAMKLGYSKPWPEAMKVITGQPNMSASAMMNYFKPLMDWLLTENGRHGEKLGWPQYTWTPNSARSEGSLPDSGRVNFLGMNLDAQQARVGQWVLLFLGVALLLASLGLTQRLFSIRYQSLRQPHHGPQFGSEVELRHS
# protocol.details: Inhibition of Angiotensin I Converting Enzyme (ACE), HHL substrate, modified Cushman method
# Type: biochemical
# details: concentration 1 μM; read-out: ACE inhibitory activity (%)
Where a name gives a salt, the structure may show the parent alone.
attribute.measured: inhibition at 1 µM (%)

P = CCOC(=O)[C@H](CCc1ccccc1)N[C@H]1CSc2ccccc2N(CC(=O)O)C1=O.Cl [Example 7, hydrochloride]
Q = O=C(O)CN1C(=O)[C@@H](N[C@H](CCc2ccccc2)C(=O)O)CSc2ccccc21 [Example 12, disodium salt]
Which is greater in inhibition at 1 µM, the first item P or the second item Q ? Return value: the label identifying the chosen record. P
(P: 86%, Q: 50%)
